- System: PKC
- measurement.protocol: In vitro phosphorylation by PKC (average of isoforms alpha, epsilon, delta, theta)
- Type: biochemical
- test.parameters: average of PKC-alpha, -epsilon, -theta, normalized to best substrate
measured.endpoint: PKC average (%)
Enter your answer as a number in %; do not include the unit.

Inquiry: Missing value: PKC average, PKC, entry 110 (EGGDRRASGRRK) [compound 110] . Fill in?
Reply text: 15

Inquiry: Missing value: PKC average, PKC, entry 111 (KKKRFSFKKSFKLSGFSFKK) [compound 111] . Fill in?
Reply text: 14

Inquiry: Missing value: PKC average, PKC, entry 99 (AGWRKKTSFRKPKED) [compound 99] . Fill in?
Reply text: 27

Inquiry: Missing value: PKC average, PKC, entry 108 (KATTKKRTLRKNDRK) [compound 108] . Fill in?
Reply text: 16

Inquiry: Missing value: PKC average, PKC, entry 76 (HVRRRRGTFKRSKLRARD) [compound 76] . Fill in?
Reply text: 91

Inquiry: Missing value: PKC average, PKC, entry 109 (KEVVRTDSLKGRRGR) [compound 109] . Fill in?
Reply text: 16

Inquiry: Missing value: PKC average, PKC, entry 78 (KFARKSTRRSIRLPE) [compound 78] . Fill in?
Reply text: 63

Inquiry: Missing value: PKC average, PKC, entry 112 (KRPGKKGSNKRPGKR) [compound 112] . Fill in?
Reply text: 12

====

- target.of.assay: PKC-theta (Homo sapiens)
- Construct: His-tag; made in house; host or cells: baculovirus-infected Sf9 cells
- Sequence (Q04759 whole entry): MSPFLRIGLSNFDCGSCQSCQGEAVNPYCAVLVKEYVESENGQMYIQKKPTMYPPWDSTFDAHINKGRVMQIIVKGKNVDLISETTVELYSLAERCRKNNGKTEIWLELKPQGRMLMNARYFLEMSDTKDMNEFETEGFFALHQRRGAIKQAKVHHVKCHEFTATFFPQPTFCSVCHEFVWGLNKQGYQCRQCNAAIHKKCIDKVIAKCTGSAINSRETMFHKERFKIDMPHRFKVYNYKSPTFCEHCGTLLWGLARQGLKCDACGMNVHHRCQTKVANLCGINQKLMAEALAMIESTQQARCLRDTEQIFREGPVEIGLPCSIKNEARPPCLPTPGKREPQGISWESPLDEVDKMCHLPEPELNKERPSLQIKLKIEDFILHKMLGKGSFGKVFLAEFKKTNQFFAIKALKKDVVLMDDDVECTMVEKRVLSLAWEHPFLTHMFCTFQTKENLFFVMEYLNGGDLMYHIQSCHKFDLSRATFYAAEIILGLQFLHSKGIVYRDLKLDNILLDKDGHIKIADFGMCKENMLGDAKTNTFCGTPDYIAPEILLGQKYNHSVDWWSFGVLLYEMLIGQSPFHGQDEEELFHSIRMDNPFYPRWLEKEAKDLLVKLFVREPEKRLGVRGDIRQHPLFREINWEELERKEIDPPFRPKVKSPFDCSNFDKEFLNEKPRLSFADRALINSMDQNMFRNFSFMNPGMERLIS
- measurement.protocol: In vitro kinase assay: peptide phosphorylation by PKC-theta
- Format: biochemical
- test.parameters: normalized to best substrate
- Excerpt: A second strategy for validation of the PSSM derived from the methods described herein is to identify sequences represented in the human proteome that have low percentiles derived from the PSSM, to synthesize peptides that have those sequences, and test the efficiency of phosphorylation of those peptides by the kinase of interest. […] The results are shown for individual peptides (FIG. 11, panel A) or for groups of peptides aggregated by percentile prediction (FIG. 11, panel B). […]
measured.endpoint: Measured in vitro phosphorylation by PKC-theta
Please make sure the unit comes right after the number.

Inquiry: Would you kindly share the measured Measured in vitro phosphorylation by PKC-theta for 194 (KRRKRKSLQRHK) [compound 194] ?
Reply text: 34%

Inquiry: Would you kindly share the measured Measured in vitro phosphorylation by PKC-theta for 214 (SRRRSPSYSRHS) [compound 214] ?
Reply text: 13%

Inquiry: Would you kindly share the measured Measured in vitro phosphorylation by PKC-theta for 209 (DKEKSKGSLKRK) [compound 209] ?
Reply text: 17%

Inquiry: Would you kindly share the measured Measured in vitro phosphorylation by PKC-theta for 200 (EQQRRALSFRQ) [compound 200] ?
Reply text: 26%

Inquiry: Would you kindly share the measured Measured in vitro phosphorylation by PKC-theta for 193 (PLRKSSLKKGGR) [compound 193] ?
Reply text: 35%

Inquiry: Would you kindly share the measured Measured in vitro phosphorylation by PKC-theta for 213 (RHSRSRSRHRLS) [compound 213] ?
Reply text: 13%

Inquiry: Would you kindly share the measured Measured in vitro phosphorylation by PKC-theta for 185 (KKFKRRLSLTLR) [compound 185] ?
Reply text: 51%

Inquiry: Would you kindly share the measured Measured in vitro phosphorylation by PKC-theta for 168 (AMSRSASKRRSR) [compound 168] ?
Reply text: 100%

Inquiry: Would you kindly share the measured Measured in vitro phosphorylation by PKC-theta for 177 (RRRRRRSRTFSR) [compound 177] ?
Reply text: 66%

Inquiry: Would you kindly share the measured Measured in vitro phosphorylation by PKC-theta for 212 (VSRGSSLKILSK) [compound 212] ?
Reply text: 13%

Inquiry: Would you kindly share the measured Measured in vitro phosphorylation by PKC-theta for 204 (RFSRRSSSWRIL) [compound 204] ?
Reply text: 22%

Inquiry: Would you kindly share the measured Measured in vitro phosphorylation by PKC-theta for 180 (FLRRSSSRRNRS) [compound 180] ?
Reply text: 65%

Inquiry: Would you kindly share the measured Measured in vitro phosphorylation by PKC-theta for 202 (VMKRKFSLRAAE) [compound 202] ?
Reply text: 24%

The values you see were collected from patent US20050064507A1.
